meta.source: the nanobody polyreactivity screen of Harvey et al. (2022)

assay: yeast display, Sf9 membrane polyspecificity reagent, FACS + sequencing; frameworks hold sequencing errors

biopolymerSequence: QVQLVESGGGLVQAGGSLRLSCAASGRTFGLNAMGWYRQAPGKERELVAAISSSGGSTYYADSVKGRFTISRDNAKNTVYLQMNSLKPEDTAVYYSAKVLYLYGTAYYYWGQGTEVTVSS
polyreactivity (PSR sort gate): high polyreactivity

biopolymerSequence: QVQLVESGGGLVQAGGSLRLSCAASGRTFTGYAMGWYRQAPGKEREFVAAITQRGGSTYYADSVKGRFTISRDTAKNTVYLQMNSLKPEDTAVYYCAARRRYKMDYWGQGTQVTVSS
polyreactivity (PSR sort gate): high polyreactivity
